Data origin, for the record: patent US20120283184A1

Target: T1, human vascular endothelial growth factor receptor-2 Fc chimera (KDR-Fc) (human, UniProt P35968 20-764)
T1 construct: range 1-764; also called human VEGFR-2; not shown: human IgG1 Fc
T1 sequence (P35968 20-764 limits assumed, change not shown, form in doubt): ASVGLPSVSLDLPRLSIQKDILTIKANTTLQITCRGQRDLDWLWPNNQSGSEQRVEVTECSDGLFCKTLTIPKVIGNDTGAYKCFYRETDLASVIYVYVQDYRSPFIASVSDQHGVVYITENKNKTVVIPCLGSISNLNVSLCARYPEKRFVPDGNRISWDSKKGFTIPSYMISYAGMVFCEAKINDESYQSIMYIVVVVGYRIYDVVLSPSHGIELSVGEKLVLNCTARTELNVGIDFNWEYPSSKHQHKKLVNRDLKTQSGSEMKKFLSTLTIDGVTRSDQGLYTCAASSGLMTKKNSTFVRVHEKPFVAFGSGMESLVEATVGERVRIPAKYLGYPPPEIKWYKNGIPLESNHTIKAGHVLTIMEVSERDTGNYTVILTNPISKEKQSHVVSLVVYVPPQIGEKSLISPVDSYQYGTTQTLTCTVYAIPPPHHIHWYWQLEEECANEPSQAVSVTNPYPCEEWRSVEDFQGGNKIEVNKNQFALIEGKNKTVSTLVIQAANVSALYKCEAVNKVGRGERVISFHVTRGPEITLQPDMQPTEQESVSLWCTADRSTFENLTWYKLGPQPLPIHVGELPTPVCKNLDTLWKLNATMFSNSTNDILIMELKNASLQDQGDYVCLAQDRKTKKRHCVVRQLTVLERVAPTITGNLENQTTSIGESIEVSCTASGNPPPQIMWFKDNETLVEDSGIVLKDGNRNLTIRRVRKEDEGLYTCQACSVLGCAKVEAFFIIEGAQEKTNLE
Assay: radioactive equilibrium binding, 1 nM KDR-Fc, % of input
# key: entry, value: Binding to 1 nM KDR, %
readout.label: Binding to 1 nM KDR, %

3′F9 PR4 (designed binder) EVVAATPTSLLISWRHPHFPTRYYRITYGETGGNSPVQEFTVPLQPPTATISGLKPGVDYTITVYAVTLGPNDRELMTPISINYRT | 18%
3C9 PR3 (designed binder) EVVAATPTSLLISWRHPHFPTRYYRITYGETGGNSPVQEFTVPLQPPTATISGLKPGVDYTITVYAVTLVRNDHELLTPISINYRT | 16%
3′F1 PR4 (designed binder) EVVAATPTSLLISWRHPHFPTRYYRITYGETGGNSPVQEFTVPLQPPTATISGLKPGVDYTITVYAVTVAQDGHFLYTPISINYRT | 31%
3B5 PR3 (designed binder) EVVAATPTSLLISWRHPHFPTRYYRITYGETGGNSPVQEFTVPLQPPTATISGLKPGVDYTITVYAVTFGQNGHALLTPISINYRT | 20%
2′DelC3 PR4 (designed binder) EVVAATPTSLLISWRHPHFPTRYYRITYGETGGNSPVQEFTVPLQPPTATISGLKPGVDYTITVYAVTWAQNGRELLTPISINYRT | 29%
4′E7 PR4 (designed binder) EVVAATPTSLLISWRHPHFPTRYYRITYGETGGNSPVQEFTVPLQPPTATISGLKPGVDYTITVYAVTWAQNDHELLTPISINYRT | 17%
2′D6-PR4 (designed binder) VSDVPRDLEVVAATPTSLLISWRHPHFPTRYYRITYGETGGNSPVQEFTVPLQPPTATISGLKPGVDYTITVYAVTVTHNGHPLMTPISINYRT | 22%
2′E4-PR4 (designed binder) VSDVPRDLEVVAATPTSLLISWRHPHFPTRYYRITYGETGGNSPVQEFTVPLQPPTATISGLKPGVDYTITVYAVTVHWNGHELMTPISINYRT | 22%
3′C12 PR4 (designed binder) EVVAATPTSLLISWRHPHFPTRYYRITYGETGGNSPVQEFTVPLQPPTATISGLKPGVDYTITVYAVTIGPNNHELLTPISINYRT | 33%
2′Del A11 PR4 (designed binder) EVVAATPTSLLISWRHPHFPTRYYRITYGETGGNSPVQEFTVPLQPPTATISGLKPGVDYTITVYAVTEDIRVLWLNTTISINYRT | 16%
3′E3 PR4 (designed binder) EVVAATPTSLLISWRHPHFPTRYYRITYGETGGNSPVQEFTVPLQPPTATISGLKPGVDYTITVYAVTMAQYGRELLTPISINYRT | 41%
3′F12 PR4 (designed binder) EVVAATPTSLLISWRHPHFPTRYYRITYGETGGNSPVQEFTVPLQPPTATISGLKPGVDYTITVYAVTLSQTDHELLTPISINYRT | 17%
1′Del G10 PR4 (designed binder) EVVAATPTSLLISWRHPHFPTRYYRITYGETGGNSPVQEFTVPLQPPTATISGLKPGVDYTITVYAVTMAQNGHKLMTPISINYRT | 36%
3′E11 PR4 (designed binder) EVVAATPTSLLISWRHPHFPTRYYRITYGETGGNSPVQEFTVPLQPPTATISGLKPGVDYTITVYAVTVGPHDRELLTPISINYRT | 17%
3′B12 PR4 (designed binder) EVVAATPTSLLISWRHPHFPTRYYRITYGETGGNSPVQEFTVPLQPPTATISGLKPGVDYTITVYAVTVAHENRELLTPISINYRT | 28%
2′Del F6 PR4 (designed binder) EVVAATPTSLLISWRHPHFPTRYYRITYGETGGNSPVQEFTVPLQPPTATISGLKPGVDYTITVYAVTLGWNDHELYIPISINYRT | 22%
3A2 PR3 (designed binder) EVVAATPTSLLISWRHPHFPTRYYRITYGETGGNSPVQEFTVPLQPPTATISGLKPGVDYTITVYAVTWSQNNRELFTPISINYRT | 23%
1′DelD1 PR4 (designed binder) EVVAATPTSLLISWRHPHFPTRYYRITYGETGGNSPVQEFTVPLQPPTATISGLKPGVDYTITVYAVTVTQNDHELLTPISINYRT | 16%
